# systemTested: DNA topoisomerase 2-alpha (Homo sapiens, UniProt P11388)
# Sequence (P11388 whole entry): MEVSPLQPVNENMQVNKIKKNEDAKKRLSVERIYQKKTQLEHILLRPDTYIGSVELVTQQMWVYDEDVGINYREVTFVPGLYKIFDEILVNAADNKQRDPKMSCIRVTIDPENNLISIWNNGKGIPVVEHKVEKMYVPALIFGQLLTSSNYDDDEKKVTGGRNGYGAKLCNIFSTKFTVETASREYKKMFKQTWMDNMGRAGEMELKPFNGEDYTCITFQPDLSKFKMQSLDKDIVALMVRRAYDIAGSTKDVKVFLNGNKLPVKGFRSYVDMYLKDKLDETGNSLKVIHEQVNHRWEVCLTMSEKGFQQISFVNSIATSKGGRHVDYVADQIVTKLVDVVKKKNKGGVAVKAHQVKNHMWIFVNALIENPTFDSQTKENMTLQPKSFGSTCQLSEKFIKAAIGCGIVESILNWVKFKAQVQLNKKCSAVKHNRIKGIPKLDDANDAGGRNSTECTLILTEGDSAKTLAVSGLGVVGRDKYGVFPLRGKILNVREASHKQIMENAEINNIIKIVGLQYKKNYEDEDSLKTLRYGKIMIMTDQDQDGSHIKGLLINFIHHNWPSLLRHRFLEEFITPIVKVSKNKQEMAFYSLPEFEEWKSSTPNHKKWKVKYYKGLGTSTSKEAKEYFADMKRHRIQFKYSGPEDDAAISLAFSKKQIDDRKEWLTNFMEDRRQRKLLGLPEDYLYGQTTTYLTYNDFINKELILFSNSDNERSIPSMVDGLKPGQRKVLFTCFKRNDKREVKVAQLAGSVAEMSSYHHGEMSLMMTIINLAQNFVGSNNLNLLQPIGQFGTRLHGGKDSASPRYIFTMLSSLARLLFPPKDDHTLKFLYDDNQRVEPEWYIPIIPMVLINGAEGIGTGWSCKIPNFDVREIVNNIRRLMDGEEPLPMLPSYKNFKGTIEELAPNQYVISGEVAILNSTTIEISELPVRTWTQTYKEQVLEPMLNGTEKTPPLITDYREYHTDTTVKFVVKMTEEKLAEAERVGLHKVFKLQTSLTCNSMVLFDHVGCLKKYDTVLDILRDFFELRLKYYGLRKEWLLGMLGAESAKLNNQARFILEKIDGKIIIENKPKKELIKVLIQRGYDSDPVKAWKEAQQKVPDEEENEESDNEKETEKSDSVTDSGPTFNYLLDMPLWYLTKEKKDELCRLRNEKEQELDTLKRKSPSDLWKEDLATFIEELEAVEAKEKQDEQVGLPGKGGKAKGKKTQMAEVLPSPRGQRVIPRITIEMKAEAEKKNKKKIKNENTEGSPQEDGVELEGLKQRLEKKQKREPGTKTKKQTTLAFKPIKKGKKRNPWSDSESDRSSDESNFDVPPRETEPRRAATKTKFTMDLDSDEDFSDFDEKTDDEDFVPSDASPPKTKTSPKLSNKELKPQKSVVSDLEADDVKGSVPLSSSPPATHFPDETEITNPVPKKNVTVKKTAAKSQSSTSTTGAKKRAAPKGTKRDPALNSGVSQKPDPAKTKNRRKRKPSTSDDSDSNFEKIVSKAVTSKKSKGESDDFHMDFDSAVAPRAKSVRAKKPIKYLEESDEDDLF
# testProtocol: Inhibition of topoisomerase 2a in human HuH7 cells
# Assay type: cell-based, Huh-7
assayMetric: IC50

[[record]]
testsmiles = "CC(=O)O[C@H]1C[C@H]([C@H](C)CC/C=C(\\C)C(=O)O)[C@@]2(C)CC=C3C(=CC[C@H]4C(C)(C)[C@@H](O)CC[C@]34C)[C@]12C"
systemtested = "DNA topoisomerase 2-alpha (Homo sapiens, UniProt P11388)"
assaymetric = "IC50"
measurement = "25 µM"


----------
Recorded pIC50 values for a group of compounds are listed next.
# systemTested: DNA topoisomerase 2-alpha (Homo sapiens, UniProt P11388)
# testProtocol: Inhibition of topoisomerase 2
pIC50: −log10 of the molar value.
assayMetric: pIC50

[[record]]
compound = "C[C@H](CCC=C(CO)CO)[C@H]1CC[C@@]2(C)C3=CC[C@H]4C(C)(C)C(=O)CC[C@]4(C)C3=CC[C@]12C [GANODERIOL F]"
measurement = 4.77

[[record]]
compound = "CC(C)=CCCC(C(=O)O)[C@H]1CC[C@@]2(C)C3=CC[C@H]4C(C)(C)C(=O)CC[C@]4(C)C3=CC[C@]12C (stereo partly drawn) [DEHYDROTRAMETENONIC ACID]"
measurement = 4.43

[[record]]
compound = "C=C(CCC(C(=O)O)[C@H]1CC[C@@]2(C)C3=CC[C@H]4C(C)(C)C(=O)CC[C@]4(C)C3=CC[C@]12C)C(C)C (stereo partly drawn) [DEHYDROEBURICONIC ACID]"
measurement = 5.34


----------
# testProtocol: Inhibition of rat microsomal 5-alpha reductase assessed as inhibition of conversion of [4-14C]testosterone to [4-14C] dihydrotestosterone after 10 mins
pIC50: −log10 of the molar value.
assayMetric: pIC50

[[record]]
compound = "C/C(=C/CC[C@@H](C)[C@H]1CC[C@@]2(C)C3=C(CC[C@]12C)[C@@]1(C)CCC(=O)C(C)(C)[C@@H]1CC3=O)C(=O)O [GANODERIC ACID DM]"
assaymetric = "pIC50"
measurement = 4.97

[[record]]
compound = "C/C(=C/CC[C@@H](C)[C@H]1C[C@H](O)[C@@]2(C)C3=CC[C@H]4C(C)(C)C(=O)CC[C@]4(C)C3=CC[C@]12C)C(=O)O [GANODERIC ACID TR]"
assaymetric = "pIC50"
measurement = 5.07

[[record]]
compound = "C/C(=C\\CC[C@@H](C)[C@H]1C[C@H](O)[C@@]2(C)C3=CC[C@H]4C(C)(C)C(=O)CC[C@]4(C)C3=CC[C@]12C)CO"
assaymetric = "pIC50"
measurement = 4.38


----------
Listing: IC50 of selected compounds
# Test system: HL-60
# testProtocol: Cytotoxicity against human HL60 cells
# Assay type: functional, cell-based
assayMetric: IC50 (µM)

[[record]]
testsmiles = "CC(C)=CC[C@@H](O)[C@@H](C)[C@H]1CC[C@@]2(C)C3=C(CC[C@]12C)[C@@]1(C)CC[C@H](O)C(C)(C)[C@@H]1CC3"
systemtested = "HL-60"
assaymetric = "IC50"
measurement = 25

[[record]]
testsmiles = "CC(=O)O[C@H]1CC[C@]2(C)C3=C(CC[C@H]2C1(C)C)[C@]1(C)CC[C@H]([C@@H](CCC=C(C)C)C(=O)O)[C@@]1(C)CC3"
systemtested = "HL-60"
assaymetric = "IC50"
measurement = 25

